Overview of reported inhibition across a group of molecules:
target-or-test-system: Cystic fibrosis transmembrane conductance regulator (Homo sapiens)
Sequence (P13569 whole entry, looked up): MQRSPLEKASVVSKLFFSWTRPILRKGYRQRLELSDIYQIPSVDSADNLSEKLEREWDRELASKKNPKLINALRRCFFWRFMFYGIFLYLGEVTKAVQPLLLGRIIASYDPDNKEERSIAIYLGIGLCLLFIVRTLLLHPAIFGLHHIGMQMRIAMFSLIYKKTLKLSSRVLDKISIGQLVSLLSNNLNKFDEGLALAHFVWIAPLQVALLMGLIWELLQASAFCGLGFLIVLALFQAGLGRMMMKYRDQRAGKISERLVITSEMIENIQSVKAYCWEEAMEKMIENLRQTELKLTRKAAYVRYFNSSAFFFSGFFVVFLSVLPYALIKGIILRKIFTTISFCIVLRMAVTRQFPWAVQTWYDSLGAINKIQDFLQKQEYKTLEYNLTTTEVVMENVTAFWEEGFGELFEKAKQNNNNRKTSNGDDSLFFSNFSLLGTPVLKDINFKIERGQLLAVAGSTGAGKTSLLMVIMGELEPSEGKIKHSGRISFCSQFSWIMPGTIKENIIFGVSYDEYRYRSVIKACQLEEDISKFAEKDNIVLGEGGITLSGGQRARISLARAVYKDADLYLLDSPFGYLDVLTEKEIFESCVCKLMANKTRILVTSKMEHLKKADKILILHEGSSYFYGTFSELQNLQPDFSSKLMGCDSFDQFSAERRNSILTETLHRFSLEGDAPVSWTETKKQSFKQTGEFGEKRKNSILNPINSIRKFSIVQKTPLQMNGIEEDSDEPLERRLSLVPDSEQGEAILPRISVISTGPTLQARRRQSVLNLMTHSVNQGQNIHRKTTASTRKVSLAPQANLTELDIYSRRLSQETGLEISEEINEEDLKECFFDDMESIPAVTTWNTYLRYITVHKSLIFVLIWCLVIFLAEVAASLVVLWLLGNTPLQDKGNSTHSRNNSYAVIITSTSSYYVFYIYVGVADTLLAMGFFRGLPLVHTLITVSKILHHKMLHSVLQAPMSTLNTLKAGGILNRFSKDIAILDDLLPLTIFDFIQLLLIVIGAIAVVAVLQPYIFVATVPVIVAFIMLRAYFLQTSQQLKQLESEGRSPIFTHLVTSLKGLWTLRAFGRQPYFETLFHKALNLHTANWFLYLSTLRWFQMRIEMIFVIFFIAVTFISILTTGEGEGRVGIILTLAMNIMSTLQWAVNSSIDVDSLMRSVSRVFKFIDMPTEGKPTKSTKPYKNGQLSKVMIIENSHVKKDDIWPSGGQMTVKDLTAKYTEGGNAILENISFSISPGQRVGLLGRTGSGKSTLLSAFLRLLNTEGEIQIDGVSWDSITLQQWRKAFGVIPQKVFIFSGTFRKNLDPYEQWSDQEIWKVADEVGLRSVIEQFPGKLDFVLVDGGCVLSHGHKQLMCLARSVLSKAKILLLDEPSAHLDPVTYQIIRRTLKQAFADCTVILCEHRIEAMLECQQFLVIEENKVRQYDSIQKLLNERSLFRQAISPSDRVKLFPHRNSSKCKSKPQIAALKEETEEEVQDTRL
test-name: Inhibition of human CFTR expressed in rat FRT cells coexpressing halide indicator YFP-H148Q assessed as inhibition of halide influx at 25 uM preincubated for 15 mins by FLIPR
Format: cell-based
Please answer using the number first and the unit second.

[ask] Report inhibition for Cn1c(=O)c2c(-c3ccccc3)n3c(c2n(C)c1=O)C(c1ccccc1)Nc1ccccc1-3 (centres undefined) please.
[reply] 92%

[ask] What do you have for Cc1ccccc1-c1c2c(=O)n(C)c(=O)n(C)c2c2n1-c1ccccc1NC2c1cccc([N+](=O)[O-])c1 (centres undefined) ?
[reply] 96%

[ask] What do you have for Cc1ccccc1-c1c2c(=O)n(C)c(=O)n(C)c2c2n1-c1ccccc1NC2c1ccccc1 (centres undefined) ?
[reply] 97%

[ask] What do you have for COc1cccc(C2Nc3ccccc3-n3c(-c4cccc(C)c4)c4c(=O)n(C)c(=O)n(C)c4c32)c1 (centres undefined) ?
[reply] 98%
